Hey, just so you know, these numbers are from patent US10329294B2.

# Target entity: UniProt Q9NWZ3
# Protocol details: IRAK4 Kinase Assay
# Format: biochemical
# Experimental setup: IMAP fluorescence polarization, 0.5 nM GST tagged IRAK4, 100 μM ATP, 30 minutes at 25° C.; read-out: IRAK4 IC50
pIC50: −log10 of the molar value. Where a name gives a salt, the structure may show the parent alone.
Outcome measure: pIC50

> print(dat)
                                   compound  reported
1  Cn1cc(NC(=O)c2cnn3ccc(N4CCC[C@@H](N)C4)nc23)c(C(F)(F)F)n1 [Example 32]      8.52

a. O=C(Nc1cscc1C(F)F)c1cnn2ccc(N3CC4CCC3CN4)nc12 (stereo not shown) [Example 135]
b. N#Cc1ccccc1NC(=O)c1cnn2ccc(N3CCC[C@@H](N)C3)nc12 [Example 269, trifluoroacetate]
c. O=C(Nc1cn(CC(F)(F)F)nc1C(F)(F)F)c1cnn2ccc(N[C@@H]3CCCC[C@@H]3O)nc12 [Example 57, trifluoroacetate]
Ascending sort, pIC50. Output the labels ranked as instructed.
c, b, a
(c: 6.49, b: 6.84, a: 7.32)

* * *

# Target entity: IRAK4 (Homo sapiens (Human), UniProt Q9NWZ3)
# Sequence (Q9NWZ3 whole entry): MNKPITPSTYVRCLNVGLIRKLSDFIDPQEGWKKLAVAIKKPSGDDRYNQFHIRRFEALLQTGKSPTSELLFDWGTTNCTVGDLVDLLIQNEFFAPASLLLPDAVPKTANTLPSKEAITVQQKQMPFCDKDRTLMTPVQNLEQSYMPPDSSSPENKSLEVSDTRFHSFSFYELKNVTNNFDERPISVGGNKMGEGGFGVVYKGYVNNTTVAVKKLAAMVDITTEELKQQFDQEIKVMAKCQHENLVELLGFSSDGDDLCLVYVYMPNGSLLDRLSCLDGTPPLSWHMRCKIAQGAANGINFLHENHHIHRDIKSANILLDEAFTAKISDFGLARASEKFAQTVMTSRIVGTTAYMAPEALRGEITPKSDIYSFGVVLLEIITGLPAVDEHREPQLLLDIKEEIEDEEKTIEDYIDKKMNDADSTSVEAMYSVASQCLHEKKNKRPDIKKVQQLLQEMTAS
# Protocol details: IRAK4 Kinase Assay
# Format: biochemical
# Experimental setup: IMAP fluorescence polarization, 0.5 nM GST tagged IRAK4, 100 μM ATP, 30 minutes at 25° C.; read-out: IRAK4 IC50
Counter-ions that a name gives are not always drawn.
# IC50 values compiled below
Value expressed in nM; do not type the unit.

Recorded results for 2 compounds are shown here.
Compound	Target entity	Reported
Cn1cc(NC(=O)c2cnn3ccc(NC4CNCC(F)(F)C4)nc23)c(C(F)(F)F)n1 (stereo not drawn)	IRAK4 (Homo sapiens (Human), UniProt Q9NWZ3)	47
N[C@H]1CCCC[C@H]1Nc1ccn2ncc(C(=O)Nc3cscc3C(F)F)c2n1 [Example 119, trifluoroacetate]	IRAK4 (Homo sapiens (Human), UniProt Q9NWZ3)	0.5

Entry Cn1cc(NC(=O)c2cnn3ccc(N4[C@@H]5CCNC[C@H]4CC5)nc23)c(C(F)(F)F)n1 (single isomer, unassigned) [Example 221, trifluoroacetate] has what IC50?
330

* * *

# Target entity: IRAK4 (Homo sapiens (Human))
# Protocol details: IRAK4 Kinase Assay
# Assay type: biochemical
# Experimental setup: IMAP fluorescence polarization, 0.5 nM GST tagged IRAK4, 100 μM ATP, 30 minutes at 25° C.; read-out: IRAK4 IC50
Structures can show the parent of a compound that is named as a salt.
Outcome measure: IC50 (nM)

> print(dat)
                                   compound                 target.entity  outcome.measure  reported
1  N#Cc1ccccc1NC(=O)c1cnn2ccc(N3CC4CCC3CN4)nc12 (stereo not drawn) [Example 271, trifluoroacetate]  IRAK4 (Homo sapiens (Human))             IC50       403
2  Cn1cc(NC(=O)c2cnn3ccc(N4CCNCC4C(F)(F)F)nc23)c(C(F)(F)F)n1 (stereo not drawn) [Example 215, trifluoroacetate]  IRAK4 (Homo sapiens (Human))             IC50       121

A. Cn1cc(NC(=O)c2cnn3ccc(N4C[C@@H]5CC[C@H]4CN5)nc23)c(C#N)n1 (single isomer, unassigned) [Example 156, trifluoroacetate]
B. O=C(Nc1cn(CC(F)(F)F)nc1C(F)(F)F)c1cnn2ccc(N3CCNCC3)nc12 [Example 299, trifluoroacetate]
Choose between A and B : whose measured IC50 value is numerically larger? Please respond with the label that marks your chosen entry.
B
(B: 81 nM, A: 41 nM)

I. N#Cc1ccccc1NC(=O)c1cnn2ccc(N[C@@H]3CCCC[C@@H]3O)nc12 [Example 266, trifluoroacetate]
II. N[C@H]1CCCC[C@H]1Nc1ccn2ncc(C(=O)Nc3ccccc3Cl)c2n1
III. Cn1cc(NC(=O)c2cnn3ccc(N[C@@H]4CCCC(F)(F)[C@@H]4N)nc23)c(C#N)n1 [Example 126, trifluoroacetate]
IV. N[C@H]1CCCC[C@H]1Nc1ccn2ncc(C(=O)Nc3cn(C4CC4)nc3C(F)(F)F)c2n1 [Example 293, trifluoroacetate]
Sort the 4 compounds by IC50; largest first, smallest last. Put the labels in the order asked and list them.
I, III, II, IV

* * *

# Target entity: IRAK4 (Homo sapiens (Human))
# Protocol details: IRAK4 Kinase Assay
# Assay type: biochemical
# Experimental setup: IRAK4 IC50 (nM), IMAP fluorescence polarization, 0.5 nM GST tagged IRAK4, 100 μM ATP, 30 minutes at 25° C.
Structures can show the parent of a compound that is named as a salt.
In this section, each of the compounds is paired with its reported IC50.
Just the number in nM, nothing appended.

Would you please look over these solved cases?
> print(dat)
                                   compound  outcome.measure  reported
1  CC(C)n1cc(NC(=O)c2cnn3ccc(N[C@@H]4CCCC[C@@H]4O)nc23)c(C(F)(F)F)n1             IC50        64
2  Cn1cc(NC(=O)c2cnn3ccc(N4CCNC5(CC4)CC5)nc23)c(C(F)(F)F)n1 [Example 220, trifluoroacetate]             IC50       153
3  Cn1cc(NC(=O)c2cnn3ccc(N[C@@H]4CCCC(O)[C@@H]4N)nc23)c(C(F)(F)F)n1 (single isomer, unassigned)             IC50         4
4  Cn1cc(NC(=O)c2cnn3ccc(N[C@H]4CC(F)(F)CC[C@H]4N)nc23)c(C(F)F)n1 (single isomer, unassigned)             IC50        38

Now look at this entry.
Entry Cn1cc(NC(=O)c2cnn3ccc(N4CC5CNCC4COC5)nc23)c(C(F)(F)F)n1 (centres unmarked) has what IC50?
9

* * *

# Target entity: UniProt Q9NWZ3
# Protocol details: IRAK4 Kinase Assay
# Format: biochemical
# Experimental setup: IMAP fluorescence polarization, 0.5 nM GST tagged IRAK4, 100 μM ATP, 30 minutes at 25° C.; read-out: IRAK4 IC50
pIC50: −log10 of the molar value. Where a name gives a salt, the structure may show the parent alone.
Outcome measure: pIC50

Please review the following examples before continuing.
Compound	Reported
Cn1cc(NC(=O)c2cnn3ccc(N4C[C@@H]5CN[C@@H](C5)C4)nc23)c(C(F)F)n1 (single isomer, unassigned) [Example 183, trifluoroacetate]	8.22
Cn1cc(NC(=O)c2cnn3ccc(N4CCCNCC4)nc23)c(C(F)(F)F)n1 [Example 8, trifluoroacetate]	7.18
CC(C)n1cc(NC(=O)c2cnn3ccc(N[C@@H]4CCCC[C@@H]4N)nc23)c(C(F)(F)F)n1 [Example 291, trifluoroacetate]	9.10
Cn1cc(NC(=O)c2cnn3ccc(NC4CNCCC4F)nc23)c(C(F)F)n1 (single isomer, unassigned) [Example 236]	9.22

I. CC1CN(c2ccn3ncc(C(=O)Nc4cn(C)nc4C(F)(F)F)c3n2)C(C)CN1 (stereo not drawn) [Example 79, trifluoroacetate]
II. N[C@H]1CCCC[C@H]1Nc1ccn2ncc(C(=O)Nc3ccsc3Cl)c2n1 [Example 116, trifluoroacetate]
From the recorded data, which exceeds the other in pIC50: I or II ? Mark your selection by writing its label.
II
(II: 9.00, I: 7.21)

* * *

# Target entity: IRAK4 (Homo sapiens (Human), UniProt Q9NWZ3)
# Protocol details: IRAK4 Kinase Assay
# Type: biochemical
# Experimental setup: IMAP fluorescence polarization, 0.5 nM GST tagged IRAK4, 100 μM ATP, 30 minutes at 25° C.; read-out: IRAK4 IC50
pIC50: −log10 of the molar value. Structures can show the parent of a compound that is named as a salt.
Outcome measure: pIC50

> print(dat)
                                   molecule                             target.entity  outcome.measure  reported
1  O=C(Nc1cn(C(F)F)nc1C(F)(F)F)c1cnn2ccc(N3CCNCC4(CC4)C3)nc12 [Example 68, trifluoroacetate]  IRAK4 (Homo sapiens (Human), UniProt Q9NWZ3)            pIC50      7.49
2  Cn1cc(NC(=O)c2cnn3ccc(N4CCCNCC4)nc23)c(Cl)n1 [Example 148, trifluoroacetate]  IRAK4 (Homo sapiens (Human), UniProt Q9NWZ3)            pIC50      6.95
3  CN(C)[C@H]1CCCC[C@H]1Nc1ccn2ncc(C(=O)Nc3cn(C)nc3C(F)(F)F)c2n1  IRAK4 (Homo sapiens (Human), UniProt Q9NWZ3)            pIC50      7.14
4  Cn1cc(NC(=O)c2cnn3ccc(N[C@@H]4CNC[C@@H](F)C4)nc23)c(C(F)F)n1  IRAK4 (Homo sapiens (Human), UniProt Q9NWZ3)            pIC50      8.10
5  Cn1cc(NC(=O)c2cnn3ccc(N[C@H]4CC(F)(F)CC[C@H]4N)nc23)c(C(F)F)n1 (single isomer, unassigned)  IRAK4 (Homo sapiens (Human), UniProt Q9NWZ3)            pIC50      9.00
6  N[C@@H]1[C@H](Nc2ccn3ncc(C(=O)Nc4cn(C(F)F)nc4C(F)(F)F)c3n2)CCCC1(F)F [Example 71, trifluoroacetate]  IRAK4 (Homo sapiens (Human), UniProt Q9NWZ3)            pIC50      6.48

1. O=C(Nc1cscc1Br)c1cnn2ccc(N3CC4CCC3CN4)nc12 (stereo not shown) [Example 124, trifluoroacetate]
2. N#Cc1ccccc1NC(=O)c1cnn2ccc(N3CCNCC3)nc12 [Example 274, trifluoroacetate]
Of 1 and 2 , whose reported pIC50 is the larger number? Mark your answer with the label of the selected entry.
1
(1: 6.61, 2: 6.18)

P. N#Cc1ccccc1NC(=O)c1cnn2ccc(N3CCNCC4(CC4)C3)nc12 [Example 267, trifluoroacetate]
Q. O=C(Nc1ccccc1I)c1cnn2ccc(N3CC4CCC3CN4)nc12 (stereo not shown) [Example 103, trifluoroacetate]
Between the entries labelled P and Q , which has a larger pIC50 value on record? Respond using the label that marks the chosen record.
P
(P: 6.45, Q: 5.22)
